target: Beta-2 adrenergic receptor (Homo sapiens); experiment: beta2AR agonists driving receptor internalization, dose response, cell-based, FAP fluorogen, flow cytometry, cherry pick 1 (AID 588763); conditions: AM2.2-beta2AR cells, 90 min; series mostly up to 33 µM
Potency and affinity values are given separately. Activity calls are given as the source filed them. No rule for the calls is given here.

>  <Molecule>
CCOc1cc(-c2nc3ccccn3c2NCC2CCCO2)ccc1O (configuration not stated)

>  <activation (receptor internalization)>
inactive

$$$$
>  <Molecule>
COc1ccccc1C(=O)Nc1ccc2oc(-c3ccc(F)cc3)nc2c1

>  <activation (receptor internalization)>
inactive

$$$$
>  <Molecule>
CC(C)c1nc2sc3c(NCc4ccccc4)ncnc3c2c2c1COC(C)(C)C2

>  <activation (receptor internalization)>
inactive

$$$$
>  <Molecule>
CC1=NN(C(N)=S)C(=O)C1N=Nc1ccc(F)cc1 (configuration not stated)

>  <activation (receptor internalization)>
inactive

$$$$
>  <Molecule>
COc1ccc(OC)c(NC(=O)c2sc3nc(C)cc(C)c3c2N)c1

>  <activation (receptor internalization)>
0.987% [at 1.22 µM] (inactive)

$$$$
>  <Molecule>
CCOc1ccccc1CNC(=O)C1CCN(c2nnc(C)c3c(C)n(-c4ccc(C)cc4)nc23)CC1

>  <activation (receptor internalization)>
inactive

$$$$
>  <Molecule>
COc1ccc(NC(=O)Cn2nnc(-c3ccc(CN4CCOCC4)cc3)n2)c(OC)c1

>  <activation (receptor internalization)>
inactive

$$$$
>  <Molecule>
Cc1cc(S(=O)(=O)N2CCOCC2)ccc1OCC(=O)Nc1ccccc1F

>  <activation (receptor internalization)>
inactive

$$$$
>  <Molecule>
COc1ccc(NC(=O)c2cccc(N3C(=O)c4cccc([N+](=O)[O-])c4C3=O)c2)cc1

>  <activation (receptor internalization)>
inactive

$$$$
>  <Molecule>
CCc1ccc(CN(C)C(=O)c2cc(COc3cncc(Cl)c3)on2)cc1

>  <activation (receptor internalization)>
inactive

$$$$
>  <Molecule>
CN(CC(=O)N1CCN(c2ccc(F)cc2)CC1)S(=O)(=O)c1ccc(F)cc1

>  <activation (receptor internalization)>
inactive

$$$$
>  <Molecule>
COc1cccc(-c2ccc(NC(=O)C3CCCN(Cc4ccccn4)C3)cc2)c1 (configuration not stated)

>  <activation (receptor internalization)>
inactive

$$$$
>  <Molecule>
CCCC(=O)N1CCN(c2ccc(NC(=O)c3ccc([N+](=O)[O-])o3)cc2Cl)CC1

>  <activation (receptor internalization)>
inactive

$$$$
>  <Molecule>
Cc1ccc(S(=O)(=O)c2ccc([N+](=O)[O-])o2)cc1

>  <activation (receptor internalization)>
inactive

$$$$
>  <Molecule>
O=C(Nc1cccc(-c2nc3cccnc3s2)c1)C1c2ccccc2Oc2ccccc21

>  <activation (receptor internalization)>
inactive

$$$$
>  <Molecule>
O=C(c1cc(COc2ccc(F)cc2Cl)on1)N1CC2C[C@@H]3CC1C[C@H](C2)C3

>  <activation (receptor internalization)>
inactive

$$$$
>  <Molecule>
O=C(CSc1ccc(Cl)cc1)Nc1ccccc1N1CCN(C(=O)c2ccccc2)CC1

>  <activation (receptor internalization)>
inactive

$$$$
